Catalogue of fraction ligated readings, one per entry.
B1: minF1; the commonest letter at each place (parent)
chain: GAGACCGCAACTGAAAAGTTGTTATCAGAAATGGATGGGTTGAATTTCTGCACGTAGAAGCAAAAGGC

- Variants of: B1
- EXPERIMENT NOTES: fraction ligated after 30 min (ligated reads / total reads); higher = more ligase activity
- CONDITION INFO: with F1*subA RNA substrate (template-directed ligation), 42 °C

Reference set (2 entries):
>>> df
   mutant_id  property_measured  measurement
0  A30T A31G   fraction ligated        0.785
1  C26G A30G   fraction ligated       0.0544

Problem: Which fraction ligated value is on record for G42C A44G ?
Result: 0.00439

Problem: Check A29G A43G too.
Result: 0.0803

Problem: Check A27C A43C too.
Result: 0.0394

Problem: Check A29C T32C too.
Result: 0.0191

Problem: Check A27C G34C too.
Result: 0.00877

Problem: Check T23C A43C too.
Result: 0.00429

Problem: Check A35C A44C too.
Result: 0.00567

Problem: Check G33T G37A too.
Result: 0.00704

Problem: Check T25A G28C too.
Result: 0.00741

Problem: Check A30G G33C too.
Result: 0.805

Problem: Check A43G A44G too.
Result: 0.00367

Problem: Check A35T T36G too.
Result: 0.00748

Problem: Check A30T T32A too.
Result: 0.0346

Problem: Check A24T G33T too.
Result: 0.0124

Problem: Check T25A T32A too.
Result: 0.00329

Problem: Check C26G G34C too.
Result: 0.0293
